Tested on: Radical scavenging activity
procedure-details: Antioxidant activity assessed as DPPH free radical scavenging activity after 20 to 60 mins by spectrophotometry
Type: functional
Parameters: concentration or dose not given beside the values
recorded-endpoint: Activity

Sample answers from the record:
compound: O=C(O)/C=C/c1ccc(O)c(O)c1 [CAFFEIC ACID]
Activity: 5.5%
--
compound: O=C1CC[C@@H](Cn2ccnc2)N1Cc1ccccc1
Activity: 9%
--
compound: O=C1CC[C@@H](Cn2ccnc2)N1Cc1cccc(O)c1
Activity: 29%
--
compound: O=C1CC[C@@H](Cn2ccnc2)N1Cc1ccccc1-c1nn[nH]n1
Activity: 30%

Now turn to the next compound.
## Input Tell me its Activity given COC(=O)c1ccc(CN2C(=O)CC[C@H]2Cn2cncc2C(=O)O)cc1 as the entry.
## Output 3%
